Reference source for all entries: patent EP3222712A1

Molecular target: alcohol dehydrogenase from Pichia pastoris (PPADH) (Komagataella phaffii)
Assay: photometric assay, reduction of aldehydes and ketones by purified PPADH (NADPH, 340 nm)
Format: biochemical, Pichia pastoris GS 115
Conditions: purified PPADH, 10 mM substrate (sample 4: 20 mM), 0.2 mM NADPH, tris HCl pH 7, 25°C
Quick rule: specific activity of at least 30 U/mg means t, below that means f.

Before answering, review these 10 worked examples.
# COMPOUND, CATEGORY LABEL
records = [
    ("CC(=O)CC(C)C", "f"),
    ("CCC/C=C/C=O", "t"),
    ("CCCC(=O)CC(=O)OCC", "f"),
    ("O=Cc1ccccc1", "t"),
    ("CC(C)=O", "f"),
    ("CC(C)=CCC/C(C)=C/C=O", "f"),
    ("CC(=O)CC(O)(c1ccccc1)C(F)(F)F (racemic)", "t"),
    ("CCCCCCC(C)=O", "f"),
    ("CC1(C)COC(=O)C1=O [dihydro-4,4-dimethyl-2,3-furandion]", "f"),
    ("O=C(c1ccccc1)C(F)(F)F", "f"),
]

Determine whether measured specific activity meets or exceeds 30 U/mg for CCCCCC=O
f

Determine whether measured specific activity meets or exceeds 30 U/mg for CCOC(=O)CC(=O)CCl
t

Determine whether measured specific activity meets or exceeds 30 U/mg for CCOC(C)=O [ethylacetate]
f

Determine whether measured specific activity meets or exceeds 30 U/mg for CC(C)=C1CC[C@@H](C)CC1=O [(+)-pulegon]
f

Determine whether measured specific activity meets or exceeds 30 U/mg for C=C(C)[C@@H]1CC=C(C)C(=O)C1 [(-)-carvone]
f

Determine whether measured specific activity meets or exceeds 30 U/mg for CC(=O)CC(C)=O
f

Determine whether measured specific activity meets or exceeds 30 U/mg for CCC(=O)c1ccccc1
f

Determine whether measured specific activity meets or exceeds 30 U/mg for CCCCCCCC(C)=O
f

Determine whether measured specific activity meets or exceeds 30 U/mg for CCCC=O
t

Determine whether measured specific activity meets or exceeds 30 U/mg for CC(C)[C@@H]1CC[C@@H](C)CC1=O [(-)-menthone]
f

Determine whether measured specific activity meets or exceeds 30 U/mg for CCC(=O)C(O)CC (stereo not shown)
f

---

System: alcohol dehydrogenase from Pichia pastoris (PPADH)
Experiment: biotransformation by purified PPADH with GDH co-factor regeneration, gas chromatography
Format: biochemical
Conditions: acetophenone derivatives, 2 hours reaction time
OBSERVABLE: level of turnover

# COMPOUND, OBSERVABLE, RESULT
records = [
    ("CC(=O)c1ccccc1Br [2'-bromoacetophenone]", "level of turnover", "+ (+=1-5%)"),
    ("COc1ccccc1C(C)=O [2'-Methoxyacetophenone]", "level of turnover", "+ (+=1-5%)"),
]

---

System: alcohol dehydrogenase from Pichia pastoris (PPADH)
Experiment: biotransformation by purified PPADH with GDH co-factor regeneration, gas chromatography
Assay type: biochemical
Conditions: acetophenone derivatives, 2 hours reaction time

# COMPOUND, ASSAYED SYSTEM, level of turnover
data = [
    ("O=C(c1ccc(Cl)cc1)C(F)(F)F", "alcohol dehydrogenase from Pichia pastoris (PPADH)", "++ (++=5-20%)"),
    ("CC(=O)c1ccccc1", "alcohol dehydrogenase from Pichia pastoris (PPADH)", "++ (++=5-20%)"),
    ("O=C(c1ccccc1Br)C(F)(F)F", "alcohol dehydrogenase from Pichia pastoris (PPADH)", "+ (+=1-5%)"),
    ("O=C(CO)c1ccccc1 [2-Hydroxyacetophenone]", "alcohol dehydrogenase from Pichia pastoris (PPADH)", "+ (+=1-5%)"),
]

---

Tested on: alcohol dehydrogenase from Pichia pastoris (PPADH)
Assay: biotransformation by purified PPADH with GDH co-factor regeneration, gas chromatography
Format: biochemical
Settings: acetophenone derivatives, 2 hours reaction time, related to the alcohol formed
Provide the reported turnover of each item.

Fill in turnover for each of the 7 compounds listed.
1. O=C(c1ccc(Cl)cc1)C(F)(F)F
2. O=C(c1ccccc1)C(F)(F)F
3. COCC(=O)c1ccccc1
4. CC(=O)c1ccccc1
5. COc1ccccc1C(C)=O
6. CC(=O)c1ccccc1Br
7. O=C(CO)c1ccccc1 [2-Hydroxyacetophenone]

1. 12.4%
2. 24.2%
3. <1%
4. 7.8%
5. <5%
6. <5%
7. <5%

Query for alcohol dehydrogenase from Pichia pastoris (PPADH): what turnover does the record show for O=C(c1ccccc1Br)C(F)(F)F ?
<5%

---

Target: alcohol dehydrogenase from Pichia pastoris (PPADH) (Komagataella phaffii)
Assay: photometric assay, oxidation of alcohols by purified PPADH (NADP+, 340 nm)
Assay type: biochemical, Pichia pastoris GS 115
Conditions: purified PPADH, 10 mM substrate, 0.2 mM NADP+, tris HCl pH 9, 25°C
OBSERVABLE: specific activity (U/mg)
Give bare numbers, in U/mg.

See these solved cases before continuing.
# COMPOUND, SCALE UNIT, specific activity
rows = [
    ("CCCC(C)CO (centres unmarked)", "U/mg", 2.04),
    ("CCCC[C@H](C)O", "U/mg", 6.61),
    ("CCCCO", "U/mg", 1.11),
]

Fill in specific activity for each of the 6 compounds listed.
1. CCCCC(C)O (centres unmarked)
2. OCCc1ccccc1Br
3. CCCC(C)O (centres unmarked)
4. CC(C)=CCCC(C)=CCO [compound 27]
5. C[C@@H](CO)c1ccccc1
6. CCCCC[C@H](C)O

1: 3.62; 2: 1.94; 3: 2.53; 4: 2.16; 5: 1.06; 6: 2.09

---

Provide the reported specific activity of each item.
Target: alcohol dehydrogenase from Pichia pastoris (PPADH) (Komagataella phaffii, UniProt C4R4L0)
Sequence (C4R4L0 entry or part of it): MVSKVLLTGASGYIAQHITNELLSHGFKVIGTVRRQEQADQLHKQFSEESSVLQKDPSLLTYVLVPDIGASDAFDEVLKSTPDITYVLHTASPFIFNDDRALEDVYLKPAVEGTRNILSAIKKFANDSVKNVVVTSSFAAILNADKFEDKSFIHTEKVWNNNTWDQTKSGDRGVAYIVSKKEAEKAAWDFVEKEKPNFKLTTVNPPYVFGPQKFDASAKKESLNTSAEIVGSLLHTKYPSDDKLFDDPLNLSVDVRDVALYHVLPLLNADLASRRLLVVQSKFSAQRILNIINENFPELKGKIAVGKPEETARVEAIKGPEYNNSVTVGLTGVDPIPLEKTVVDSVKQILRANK
Test: photometric assay, reduction of aldehydes and ketones by purified PPADH (NADPH, 340 nm)
Assay type: biochemical, Pichia pastoris GS 115
Details: purified PPADH, 10 mM substrate (sample 4: 20 mM), 0.2 mM NADPH, tris HCl pH 7, 25°C
Numbers only, in U/mg.

See these solved cases before continuing.
# MOLECULE, OBSERVABLE, RECORDED NUMBER
measured = [
    ("CC(C)=CCCC(C)CC=O (stereo not shown)", "specific activity", 27.8),
    ("CCOC(=O)C(Cl)C(C)=O (stereo not shown)", "specific activity", 5.7),
    ("CCCC(C)C=O (stereo not shown)", "specific activity", 96.1),
]

What does the record list as specific activity for CC(=O)c1ccccc1 ?
0.06
